# credit: patent US9776963B2

# System: HIV-1 YU2 gp120 glycoprotein V430A (Human immunodeficiency virus type 1 group M subtype B, UniProt P35961, V417A)
# Construct: (His)6 (C)
# Test Protocol: biochemical
Measured Endpoint: Kd (µM)
Enter your answer as a number in µM; do not include the unit.

If you can, please state the reported Kd value of CC1(C)CC(NC(=O)C(=O)Nc2ccc(Cl)c(F)c2)CC(C)(C)N1 [Compound II] .
1

----------
# System: HIV-1 YU2 gp120 glycoprotein D368A/S375A (Human immunodeficiency virus type 1 group M subtype B, UniProt P35961, D363A/S370A)
# Construct: (His)6 (C)
# Test Protocol: biochemical
Measured Endpoint: Kd (nM)
Your answer should be a plain number; it is taken to be in nM.

Data request, read-out Kd, for CC1(C)CC(NC(=O)C(=O)Nc2ccc(Cl)c(F)c2)CC(C)(C)N1
83

----------
# System: HIV-1 YU2 gp120 glycoprotein S375A (Human immunodeficiency virus type 1 group M subtype B, UniProt P35961, S370A)
# Construct: (His)6 (C)
# Test Protocol: biochemical
Measured Endpoint: pKd
pKd (log units): -log10 of the concentration in mol/L.

Fill blank: measured pKd of the compound CC1(C)CC(NC(=O)C(=O)Nc2ccc(Cl)c(F)c2)CC(C)(C)N1 is ____.
6.85

----------
The following compounds each carry a recorded Kd for w.t. HIV-1 YU2 gp120 glycoprotein (Human immunodeficiency virus type 1 group M subtype B).
# value in nM; strip the unit string

CN1C(C)(C)CC(NC(=O)C(=O)Nc2ccc(Cl)c(F)c2)CC1(C)C [Compound III] :: 330

Moving on to the next compound.
Returns the measured Kd for the input compound. Input: CC1(C)CC(NC(=O)C(=O)Nc2ccc(Cl)c(F)c2)CC(C)(C)N1 [Compound II]
800
